Tested on: 3T3-L1
ASSAY_PROCEDURE: In vitro fold stimulation of glucose transporter protein in 3T3-L1 adipocytes at a concentration of 30 uM
Format: functional, Mus musculus
VALUE_KIND: GT fold stimulation
Give bare numbers.

O=C1NC(=O)C(Cc2ccc3c(c2)CC[C@H](Cc2ccccc2)O3)S1 (some centres not stated) [ENGLITAZONE] = 1.24

Hey, quick one: what's GT fold stimulation for each of these?
1. CCC1(CC)CCc2cc(CC3SC(=O)NC3=O)ccc2O1 (configuration not stated)
2. O=C1NC(=O)C(Cc2ccc3c(c2)CCC(Cc2ccccn2)O3)S1 (configuration not stated)
3. O=C1NC(=O)C(Cc2ccc3c(c2)CCC(Cc2ccc(O)cc2)O3)S1 (configuration not stated)
4. O=C1NC(=O)C(Cc2ccc3c(c2)CCC(Cc2ccc(OCc4ccccc4)cc2)O3)S1 (configuration not stated)

Resp:
1: 1.21; 2: 1.42; 3: 1.34; 4: 1.59

Hey, quick one: what's GT fold stimulation for each of these?
1. O=C1NC(=O)C(Cc2ccc3c(c2)C(Cc2ccccc2)CO3)S1 (configuration not stated)
2. O=C1NC(=O)C(Cc2ccc3c(c2)CCC2(CCCCC2)O3)S1 (configuration not stated)

Resp:
1. 1.31
2. 1.2

---

Kindly state 2-DG uptake stimulation for each of the entries shown.
ASSAY_PROCEDURE: In vitro stimulation of 2-Deoxyglucose uptake in L6 myocytes from rat skeletal myoblasts at a concentration of 10 uM
Assay type: functional
One number for each entry.

Below are worked cases with known answers.
O=C1NC(=O)C(Cc2ccc3c(c2)C(Cc2ccccc2)CO3)S1 (stereo not drawn) = 1.25
CC1(C2Cc3cc(CC4SC(=O)NC4=O)ccc3O2)CCCCC1 (stereo not drawn) = 0.93

Req: Find the recorded 2-DG uptake stimulation belonging to O=C1NC(=O)C(Cc2ccc3c(c2)CCC(CC2CCCCC2)O3)S1 (stereo not drawn) and report it.
Resp: 1.55

---

System: 3T3-L1
ASSAY_PROCEDURE: In vitro fold stimulation of glucose transporter protein in 3T3-L1 adipocytes at a concentration of 30 uM
Assay type: functional, Mus musculus
VALUE_KIND: GT fold stimulation
Numbers only.

Below are worked cases with known answers.
O=C1NC(=O)C(Cc2ccc3c(c2)C(c2ccccc2)CO3)S1 (stereo not drawn) = 1.19
O=C1NC(=O)C(Cc2ccc3c(c2)CC(CC2CCCCC2)O3)S1 (stereo not drawn) = 1.41

# context switch: different compound, same GT fold stimulation
Req: Find the recorded GT fold stimulation belonging to CC1(COc2ccc(CC3SC(=O)NC3=O)cc2)CCCCC1 (stereo not drawn) and report it.
Resp: 1.51

---

ASSAY_PROCEDURE: In vitro stimulation of 2-Deoxyglucose uptake in L6 myocytes from rat skeletal myoblasts at a concentration of 10 uM
Type: functional
VALUE_KIND: 2-DG uptake stimulation
One number for each entry.

Below are worked cases with known answers.
O=C1NC(=O)C(Cc2ccc3c(c2)C(c2ccccc2)CO3)S1 (configuration not stated) = 1.24
O=C1NC(=O)C(Cc2ccc3c(c2)CCC(C2CCCCC2)O3)S1 (configuration not stated) = 2.08
O=C1NC(=O)C(Cc2ccc3c(c2)CCC(Cc2ccc(O)cc2)O3)S1 (configuration not stated) = 1.24
O=C1NC(=O)C(Cc2ccc3c(c2)CC(C2CCCCC2)O3)S1 (configuration not stated) = 1.85
O=C1NC(=O)C(Cc2ccc3c(c2)CC(Cc2ccccc2)O3)S1 (configuration not stated) = 1.11

Hey, quick one: what's 2-DG uptake stimulation for each of these?
1. O=C1NC(=O)C(Cc2ccc3c(c2)CC[C@@H](Cc2ccccc2)O3)S1 (some centres not stated)
2. O=C1NC(=O)C(Cc2ccc3c(c2)CCC(c2ccccc2)O3)S1 (configuration not stated)
3. O=C1NC(=O)C(Cc2ccc3c(c2)CC2(CCCCC2)CO3)S1 (configuration not stated)

Resp:
0.9
0.95
1.27

Hey, quick one: what's 2-DG uptake stimulation for each of these?
1. O=C1NC(=O)C(Cc2ccc3c(c2)CCC2(CCCCCC2)O3)S1 (configuration not stated)
2. O=C1NC(=O)C(Cc2ccc3c(c2)CC(c2ccccc2)O3)S1 (configuration not stated)
3. O=C1NC(=O)C(Cc2ccc3c(c2)CCC(Cc2ccccn2)O3)S1 (configuration not stated)
4. O=C1NC(=O)C(Cc2ccc3c(c2)CC2(CCCCC2)O3)S1 (configuration not stated)

Resp:
[0.99, 0.99, 0.96, 1.28]
